Tested on: HBV genome in HEK293T cells transduced with a lentiviral vector
Experiment: Base editing efficiency in Hek293-lentiHBV system (PCR amplicons sequenced on MiSeq)
Format: cell-based, Hepatitis B virus
Conditions: average of 3, base editor Cas12b-ABE, plasmid transfection, four days
Strand notation (5' to 3'): a small letter for the sugar, then the base; units joined by * are phosphorothioate-linked, units joined directly phosphodiester-linked; [ ] holds rarer units or linkages, { } end groups; capitals alone tell only the bases. m = 2'-O-methyl; r = 2'-OH (RNA)
The label depends only on Average Editing Efficiency (%): class 1 if it is at least 6%, class 0 if it is smaller.

molecule	answer label
cas12b-5: guide RNA SEQ ID NO: 380 (nucleic acid) guide: mG*mU*mU*rCrUrGrUrCrUrUrUrUrGrGrUrCrArGrGrArCrArArCrCrGrUrCrUrArGrCrUrArUrArArGrUrGrCrUrGrCrArGrGrGrUrGrUrGrArGrArArArCrUrCrCrUrArUrUrGrCrUrGrGrArCrGrArUrGrUrCrUrCrUrUrArCrGrArGrGrCrArUrUrArGrCrArCrUrCrGrCrUrGrGrArUrGrUrGrUrCrUrGrCrGrGrC	class 0
cas12b-122b: guide RNA SEQ ID NO: 391 (nucleic acid, sugars from the 5' end m3 r114, linkages s3 o113 (s phosphorothioate, o phosphodiester), T or U not given here) guide: GTTCTGTCTTTTGGTCAGGACAACCGTCTAGCTATAAGTGCTGCAGGGTGTGAGAAACTCCTATTGCTGGACGATGTCTCTTACGAGGCATTAGCACCACGCACGCGCTGATGGCCC	class 0
cas12b-30: guide RNA SEQ ID NO: 383 (nucleic acid) guide: mG*mU*mU*rCrUrGrUrCrUrUrUrUrGrGrUrCrArGrGrArCrArArCrCrGrUrCrUrArGrCrUrArUrArArGrUrGrCrUrGrCrArGrGrGrUrGrUrGrArGrArArArCrUrCrCrUrArUrUrGrCrUrGrGrArCrGrArUrGrUrCrUrCrUrUrArCrGrArGrGrCrArUrUrArGrCrArCrGrCrUrGrArCrGrCrArArCrCrCrCrCrArCrUrGrG	class 0
cas12b-11: guide RNA SEQ ID NO: 381 (nucleic acid) guide: mG*mU*mU*rCrUrGrUrCrUrUrUrUrGrGrUrCrArGrGrArCrArArCrCrGrUrCrUrArGrCrUrArUrArArGrUrGrCrUrGrCrArGrGrGrUrGrUrGrArGrArArArCrUrCrCrUrArUrUrGrCrUrGrGrArCrGrArUrGrUrCrUrCrUrUrArCrGrArGrGrCrArUrUrArGrCrArCrCrArCrCrUrGrUrArUrUrCrCrCrArUrCrCrCrArU	class 1
cas12b-154: guide RNA SEQ ID NO: 387 (nucleic acid) guide: mG*mU*mU*rCrUrGrUrCrUrUrUrUrGrGrUrCrArGrGrArCrArArCrCrGrUrCrUrArGrCrUrArUrArArGrUrGrCrUrGrCrArGrGrGrUrGrUrGrArGrArArArCrUrCrCrUrArUrUrGrCrUrGrGrArCrGrArUrGrUrCrUrCrUrUrArCrGrArGrGrCrArUrUrArGrCrArCrUrUrGrUrCrArArCrArArGrArArArArArCrCrCrC	class 1
cas12b-100: guide RNA SEQ ID NO: 385 (nucleic acid) guide: mG*mU*mU*rCrUrGrUrCrUrUrUrUrGrGrUrCrArGrGrArCrArArCrCrGrUrCrUrArGrCrUrArUrArArGrUrGrCrUrGrCrArGrGrGrUrGrUrGrArGrArArArCrUrCrCrUrArUrUrGrCrUrGrGrArCrGrArUrGrUrCrUrCrUrUrArCrGrArGrGrCrArUrUrArGrCrArCrUrUrCrUrUrCrUrArGrGrGrGrArCrCrUrGrCrCrU	class 0
cas12b-35: guide RNA SEQ ID NO: 388 (nucleic acid) guide: mG*mU*mU*rCrUrGrUrCrUrUrUrUrGrGrUrCrArGrGrArCrArArCrCrGrUrCrUrArGrCrUrArUrArArGrUrGrCrUrGrCrArGrGrGrUrGrUrGrArGrArArArCrUrCrCrUrArUrUrGrCrUrGrGrArCrGrArUrGrUrCrUrCrUrUrArCrGrArGrGrCrArUrUrArGrCrArCrCrCrCrArArGrGrUrCrUrUrArCrArUrArArGrArG	class 0
cas12b-127: guide RNA SEQ ID NO: 390 (nucleic acid) guide: mG*mU*mU*rCrUrGrUrCrUrUrUrUrGrGrUrCrArGrGrArCrArArCrCrGrUrCrUrArGrCrUrArUrArArGrUrGrCrUrGrCrArGrGrGrUrGrUrGrArGrArArArCrUrCrCrUrArUrUrGrCrUrGrGrArCrGrArUrGrUrCrUrCrUrUrArCrGrArGrGrCrArUrUrArGrCrArCrArCrArCrArGrArArArGrGrCrCrUrUrGrUrArArG	class 1
cas12b-4: guide RNA SEQ ID NO: 379 (nucleic acid) guide: mG*mU*mU*rCrUrGrUrCrUrUrUrUrGrGrUrCrArGrGrArCrArArCrCrGrUrCrUrArGrCrUrArUrArArGrUrGrCrUrGrCrArGrGrGrUrGrUrGrArGrArArArCrUrCrCrUrArUrUrGrCrUrGrGrArCrGrArUrGrUrCrUrCrUrUrArCrGrArGrGrCrArUrUrArGrCrArCrArCrArArGrArArUrCrCrUrCrArCrArArUrArCrC	class 1
cas12b-17: guide RNA SEQ ID NO: 382 (nucleic acid) guide: mG*mU*mU*rCrUrGrUrCrUrUrUrUrGrGrUrCrArGrGrArCrArArCrCrGrUrCrUrArGrCrUrArUrArArGrUrGrCrUrGrCrArGrGrGrUrGrUrGrArGrArArArCrUrCrCrUrArUrUrGrCrUrGrGrArCrGrArUrGrUrCrUrCrUrUrArCrGrArGrGrCrArUrUrArGrCrArCrGrGrGrGrCrCrArArGrUrCrUrGrUrArCrArGrCrA	class 1
